Each recorded value in this set is attributed to paper PMC9741287.

Task for the reader: assign each of the following molecules its reported Luminosity (λ = 365 nm).
- procedure.text: Luminescence / photophysical properties
- Type: physicochemical
- reported.conditions: λ = 365 nm

Request: Using the record for C[CH2][Sn]1([CH2]C)[O]C(c2cc(C(C)(C)C)c(O)c(C(C)(C)C)c2)=NN=Cc2ccccc2[O]1 , report its Luminosity (λ = 365 nm).
Result: 210,983 M^−1·cm^−1

Request: Using the record for CCC[CH2][Sn]1([CH2]CCC)[O]C(c2cc(C(C)(C)C)c(O)c(C(C)(C)C)c2)=NN=Cc2ccccc2[O]1 , report its Luminosity (λ = 365 nm).
Result: 146,127 M^−1·cm^−1

Request: Using the record for CC(C)(C)c1cc(C2=NN=Cc3ccccc3[O][Sn]([C](C)(C)C)([C](C)(C)C)[O]2)cc(C(C)(C)C)c1O , report its Luminosity (λ = 365 nm).
Result: 206,360 M^−1·cm^−1

Request: Using the record for CC(C)(C)c1cc(C2=NN=Cc3ccccc3[O][Sn]([c]3ccccc3)([c]3ccccc3)[O]2)cc(C(C)(C)C)c1O , report its Luminosity (λ = 365 nm).
Result: 333,370 M^−1·cm^−1

Request: Using the record for CC(C)(C)c1cc(C2=NN=Cc3ccccc3[O][Sn]([CH3])([CH3])[O]2)cc(C(C)(C)C)c1O , report its Luminosity (λ = 365 nm).
Result: 508,403 M^−1·cm^−1

Request: Using the record for CC(C)(C)c1cc(C2=NN=Cc3ccccc3[O][Sn]([c]3cc(C(C)(C)C)c(O)c(C(C)(C)C)c3)([c]3cc(C(C)(C)C)c(O)c(C(C)(C)C)c3)[O]2)cc(C(C)(C)C)c1O , report its Luminosity (λ = 365 nm).
Result: 294,084 M^−1·cm^−1

###

Task for the reader: assign each of the following compounds its reported Quantum Yield, Powders.
- procedure.text: Luminescence / photophysical properties
- Format: physicochemical
- reported.conditions: solid (compound 4 is an oil); λex = 365 nm
Number plus unit, in that order.

Request: Using the record for CC(C)(C)c1cc(C2=NN=Cc3ccccc3[O][Sn]([c]3ccccc3)([c]3ccccc3)[O]2)cc(C(C)(C)C)c1O , report its Quantum Yield, Powders.
Result: 6 ± 2%

Request: Using the record for CCC[CH2][Sn]1([CH2]CCC)[O]C(c2cc(C(C)(C)C)c(O)c(C(C)(C)C)c2)=NN=Cc2ccccc2[O]1 , report its Quantum Yield, Powders.
Result: 4 ± 3%

Request: Using the record for CC(C)(C)c1cc(C2=NN=Cc3ccccc3[O][Sn]([CH3])([CH3])[O]2)cc(C(C)(C)C)c1O , report its Quantum Yield, Powders.
Result: 14 ± 2%

Request: Using the record for CC(C)(C)c1cc(C2=NN=Cc3ccccc3[O][Sn]([C](C)(C)C)([C](C)(C)C)[O]2)cc(C(C)(C)C)c1O , report its Quantum Yield, Powders.
Result: 8 ± 1%

Request: Using the record for C[CH2][Sn]1([CH2]C)[O]C(c2cc(C(C)(C)C)c(O)c(C(C)(C)C)c2)=NN=Cc2ccccc2[O]1 , report its Quantum Yield, Powders.
Result: 14 ± 2%

###

- procedure.text: Luminescence / photophysical properties
- Format: physicochemical
- reported.conditions: λ = 365 nm
- Description: Their quantum yields reached 20%, which together with their high absorption (Table 4) makes them highly emissive even in powders. The registration of luminescence spectra of powders and solutions in the visible range as well as the measurement of quantum yields were carried out with Horiba FluoroMax Plus, with xenon lamp as excitation source at room temperature; excitation was performed through a ligand (λex = 365 nm). […]
Please use Fulfilled for ε (λ = 365 nm) under 4000 M⁻¹ cm⁻¹ and Not fulfilled for everything else, ties included.

Request: ε (λ = 365 nm) strictly < 4000 M⁻¹ cm⁻¹ for this compound? CC(C)(C)c1cc(C2=NN=Cc3ccccc3[O][Sn]([c]3ccccc3)([c]3ccccc3)[O]2)cc(C(C)(C)C)c1O [Compound 6, Ph2SnL]
Result: Not fulfilled

Request: ε (λ = 365 nm) strictly < 4000 M⁻¹ cm⁻¹ for this compound? CC(C)(C)c1cc(C2=NN=Cc3ccccc3[O][Sn]([c]3cc(C(C)(C)C)c(O)c(C(C)(C)C)c3)([c]3cc(C(C)(C)C)c(O)c(C(C)(C)C)c3)[O]2)cc(C(C)(C)C)c1O [Compound 7, (2,6-Di-tert-butylphenol)2SnL]
Result: Not fulfilled

Request: ε (λ = 365 nm) strictly < 4000 M⁻¹ cm⁻¹ for this compound? CC(C)(C)c1cc(C2=NN=Cc3ccccc3[O][Sn]([CH3])([CH3])[O]2)cc(C(C)(C)C)c1O [Compound 2, Me2SnL]
Result: Not fulfilled

Request: ε (λ = 365 nm) strictly < 4000 M⁻¹ cm⁻¹ for this compound? CC(C)(C)c1cc(C2=NN=Cc3ccccc3[O][Sn]([C](C)(C)C)([C](C)(C)C)[O]2)cc(C(C)(C)C)c1O [Compound 5, Bu^t2SnL]
Result: Fulfilled

Request: ε (λ = 365 nm) strictly < 4000 M⁻¹ cm⁻¹ for this compound? C[CH2][Sn]1([CH2]C)[O]C(c2cc(C(C)(C)C)c(O)c(C(C)(C)C)c2)=NN=Cc2ccccc2[O]1 [Compound 3, Et2SnL]
Result: Not fulfilled

Request: ε (λ = 365 nm) strictly < 4000 M⁻¹ cm⁻¹ for this compound? CCC[CH2][Sn]1([CH2]CCC)[O]C(c2cc(C(C)(C)C)c(O)c(C(C)(C)C)c2)=NN=Cc2ccccc2[O]1 [Compound 4, Bu2SnL]
Result: Fulfilled

###

- procedure.text: MTT test with HepG2 cells, 48 h
- Type: cell-based
- reported.conditions: human, HepG2 cells; HepG2, 48 h incubation, MTT
metric.name: CC50 at 48 h (µM)
Express your answer in µM, writing the number without its unit.

Request: Using the record for CC(C)(C)c1cc(C(=O)N/N=C/c2ccccc2O)cc(C(C)(C)C)c1O , report its CC50 at 48 h.
Result: 12.4

###

- procedure.text: Luminescence / photophysical properties
- Assay type: physicochemical
- reported.conditions: DMSO, 1000 µM; λex = 365 nm
Task for the reader: assign each of the following compounds its reported Quantum Yield, DMSO Solution 1000 µM.
Express your answer in %, writing the number without its unit.

Request: Using the record for CCC[CH2][Sn]1([CH2]CCC)[O]C(c2cc(C(C)(C)C)c(O)c(C(C)(C)C)c2)=NN=Cc2ccccc2[O]1 , report its Quantum Yield, DMSO Solution 1000 µM.
Result: 36

Request: Using the record for CC(C)(C)c1cc(C2=NN=Cc3ccccc3[O][Sn]([c]3ccccc3)([c]3ccccc3)[O]2)cc(C(C)(C)C)c1O , report its Quantum Yield, DMSO Solution 1000 µM.
Result: 26

Request: Using the record for CC(C)(C)c1cc(C2=NN=Cc3ccccc3[O][Sn]([c]3cc(C(C)(C)C)c(O)c(C(C)(C)C)c3)([c]3cc(C(C)(C)C)c(O)c(C(C)(C)C)c3)[O]2)cc(C(C)(C)C)c1O , report its Quantum Yield, DMSO Solution 1000 µM.
Result: 32

Request: Using the record for CC(C)(C)c1cc(C2=NN=Cc3ccccc3[O][Sn]([C](C)(C)C)([C](C)(C)C)[O]2)cc(C(C)(C)C)c1O , report its Quantum Yield, DMSO Solution 1000 µM.
Result: 29

Request: Using the record for C[CH2][Sn]1([CH2]C)[O]C(c2cc(C(C)(C)C)c(O)c(C(C)(C)C)c2)=NN=Cc2ccccc2[O]1 , report its Quantum Yield, DMSO Solution 1000 µM.
Result: 30

###

- experimental.target: UniProtKB P08170
- Sequence (P08170 whole entry): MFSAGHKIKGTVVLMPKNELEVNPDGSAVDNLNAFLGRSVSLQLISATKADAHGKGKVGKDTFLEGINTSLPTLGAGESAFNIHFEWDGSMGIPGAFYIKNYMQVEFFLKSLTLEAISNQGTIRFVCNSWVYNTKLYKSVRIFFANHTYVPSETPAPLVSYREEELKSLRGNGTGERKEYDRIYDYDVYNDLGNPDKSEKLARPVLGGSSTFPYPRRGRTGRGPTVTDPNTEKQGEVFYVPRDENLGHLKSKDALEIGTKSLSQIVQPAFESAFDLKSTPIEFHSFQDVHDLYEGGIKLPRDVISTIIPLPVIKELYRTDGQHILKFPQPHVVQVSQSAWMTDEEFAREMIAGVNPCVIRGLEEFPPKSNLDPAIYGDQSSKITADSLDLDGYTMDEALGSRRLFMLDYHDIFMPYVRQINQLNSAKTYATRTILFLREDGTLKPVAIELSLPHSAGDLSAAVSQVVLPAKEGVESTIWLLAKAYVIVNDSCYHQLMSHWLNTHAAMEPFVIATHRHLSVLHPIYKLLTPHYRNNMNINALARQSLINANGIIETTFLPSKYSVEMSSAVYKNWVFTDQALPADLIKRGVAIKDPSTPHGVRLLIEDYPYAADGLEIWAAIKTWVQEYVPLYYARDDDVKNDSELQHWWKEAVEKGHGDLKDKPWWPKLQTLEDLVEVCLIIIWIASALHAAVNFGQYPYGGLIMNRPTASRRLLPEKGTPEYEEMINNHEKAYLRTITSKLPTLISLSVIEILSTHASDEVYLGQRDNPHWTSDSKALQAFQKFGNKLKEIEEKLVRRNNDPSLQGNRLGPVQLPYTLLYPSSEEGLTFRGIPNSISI
- procedure.text: Lipoxygenase inhibition assay
- Type: biochemical
- reported.conditions: 3 µL of 1 mM compound in DMSO per 150 µL; 5 min, 20 °C; 234 nm
metric.name: I (LOX Inhibition Assay)
Number plus unit, in that order.

Request: Using the record for CC(C)(C)c1cc(C2=NN=Cc3ccccc3[O][Sn]([c]3ccccc3)([c]3ccccc3)[O]2)cc(C(C)(C)C)c1O , report its I (LOX Inhibition Assay).
Result: 44.9 ± 3.7%

Request: Using the record for C[CH2][Sn]1([CH2]C)[O]C(c2cc(C(C)(C)C)c(O)c(C(C)(C)C)c2)=NN=Cc2ccccc2[O]1 , report its I (LOX Inhibition Assay).
Result: 61.1 ± 5.1%

Request: Using the record for CC(C)(C)c1cc(C2=NN=Cc3ccccc3[O][Sn]([CH3])([CH3])[O]2)cc(C(C)(C)C)c1O , report its I (LOX Inhibition Assay).
Result: 57.1 ± 4.7%

Request: Using the record for CC(C)(C)c1cc(C2=NN=Cc3ccccc3[O][Sn]([c]3cc(C(C)(C)C)c(O)c(C(C)(C)C)c3)([c]3cc(C(C)(C)C)c(O)c(C(C)(C)C)c3)[O]2)cc(C(C)(C)C)c1O , report its I (LOX Inhibition Assay).
Result: 66.0 ± 5.9%

Request: Using the record for CCC[CH2][Sn]1([CH2]CCC)[O]C(c2cc(C(C)(C)C)c(O)c(C(C)(C)C)c2)=NN=Cc2ccccc2[O]1 , report its I (LOX Inhibition Assay).
Result: 47.5 ± 3.8%

Request: Using the record for CC(C)(C)c1cc(C2=NN=Cc3ccccc3[O][Sn]([C](C)(C)C)([C](C)(C)C)[O]2)cc(C(C)(C)C)c1O , report its I (LOX Inhibition Assay).
Result: 61.4 ± 5.3%
